system: BT-549; assay: normalised viability (% of control), CellTiter-Blue; higher = more viable cells (about 100 = DMSO control); settings: 1000 nM; incubation time: 72 h
Assign normalised viability to each entry below.
# unit: % | format: bare number

Looking up "Cc1c(CN2CCN(C(=O)[C@H](C)O)CC2)sc2c(N3CCOCC3)nc(-c3cnc(N)nc3)nc12" , I see its normalised viability listed as 33.3

Per the record, "CO[C@@H](C(=O)N1Cc2[nH]nc(NC(=O)c3ccc(N4CCN(C)CC4)cc3)c2C1)c1ccccc1" has normalised viability of 64.3

Form field normalised viability, entry "C[C@]12O[C@H](C[C@]1(O)CO)n1c3ccccc3c3c4c(c5c6ccccc6n2c5c31)CNC4=O" : 41.8

Summary for this compound, "O=C(CCBr)N1CCN(C(=O)CCBr)CC1" : normalised viability is 87.1

normalised viability for "O=S(=O)(c1cccc2cnccc12)N1CCCNCC1" is 95.2

The recorded normalised viability for entry "Cn1cc(CNCC2CCN(c3ncc(C(=O)NO)cn3)CC2)c2ccccc21" equals 12

====

test system: HCC1937; experiment: normalised viability (% of control), CellTiter-Blue; higher = more viable cells (100 = DMSO, 0 = benzethonium chloride kill control); details: 1 nM; incubation time: 72 h
Endpoint: normalised viability

Measured normalised viability of O=S(=O)(c1cccc2cnccc12)N1CCCNCC1 [Fasudil] : 88.6%

Measured normalised viability of "O=C(NC[C@H](O)CO)c1ccncc1Nc1ccc(I)cc1F" : 87.6%

Form: compound = Cc1c(CN2CCN(C(=O)[C@H](C)O)CC2)sc2c(N3CCOCC3)nc(-c3cnc(N)nc3)nc12 [GDC-0980] ; normalised viability = 88.1%

CCC/C=C/C=C/C(=O)O[C@H]1/C(=C/C(=O)OC)C[C@H]2C[C@H]([C@@H](C)O)OC(=O)C[C@H](O)C[C@@H]3C[C@H](OC(C)=O)C(C)(C)[C@](O)(C[C@@H]4C/C(=C/C(=O)OC)C[C@H](/C=C/C(C)(C)[C@]1(O)O2)O4)O3 [Bryostatin 1] has a reported normalised viability of 85.2%

====

test system: MFM-223; assay: drug sensitivity score (DSS), CellTiter-Glo (DSS (AUC-based score)); higher = stronger drug effect (viability inhibition or cytotoxicity); extreme values may be limits of the assay; conditions: incubation time: 72 h
Please go through the items and note down their drug sensitivity score.
The answer should be written as a number, with no unit following it.

Notebook: "CS(=O)(=O)N1CCN(Cc2cc3nc(-c4cccc5[nH]ncc45)nc(N4CCOCC4)c3s2)CC1" , drug sensitivity score read as 7.5

"O=C(Nc1c[nH]nc1-c1nc2ccc(CN3CCOCC3)cc2[nH]1)NC1CC1" has a reported drug sensitivity score of 1.08

Sample "CNC(=O)c1cc(Oc2ccc(NC(=O)Nc3ccc(Cl)c(C(F)(F)F)c3)cc2)ccn1" ; drug sensitivity score observed: 0

Measured drug sensitivity score of "Cc1c(Cn2c(C)nc3c(C(=O)O)cc(N4CCOCC4)cc32)cccc1C(F)(F)F" : 0

Short answer for Nc1cccc2c1CN(C1CCC(=O)NC1=O)C2=O (centres undefined) [Lenalidomide] : drug sensitivity score was 0

Consider CC/C(=C(\c1ccc(O)cc1)c1ccc(OCCN(C)C)cc1)c1ccccc1 [4-hydroxytamoxifen] . Its measured drug sensitivity score is 1.9

Lookup result for "c1cc(CN2CCCNCCNCCCNCC2)ccc1CN1CCCNCCNCCCNCC1" ; measured drug sensitivity score: 0

Recorded drug sensitivity score (compound "O=C(NC[C@H](O)CO)c1ccncc1Nc1ccc(I)cc1F" ): 1.68

Query "O=S(=O)(c1cccc2cnccc12)N1CCCNCC1" yields drug sensitivity score of 0
